METRIC_NAME: melting point

- GIVEN_SMILES: "CN(C)Cc1ccc(N/C(=C2\\C(=O)Nc3ccccc32)c2ccccc2)cc1"
  melting point: "237 to 240 °C"

Asked: // melting point lookup, key: Cc1cccc(/C(Nc2ccc(CN(C)C)cc2)=C2/C(=O)Nc3ccc([N+](=O)[O-])cc32)c1
Given back: 210 °C

Asked: // melting point lookup, key: COC1CCN(Cc2ccc(N/C(=C3\C(=O)Nc4ccc([N+](=O)[O-])cc43)c3ccccc3)cc2)CC1
Given back: 204 to 206 °C

Asked: // melting point lookup, key: CN(C(=O)C(F)(F)F)c1cccc(N/C(=C2\C(=O)Nc3ccccc32)c2ccccc2)c1
Given back: 224 to 227 °C

----------
METRIC_NAME: melting point

Asked: // melting point lookup, key: CCCCS(=O)(=O)N(CCN(C)C)c1ccc(N/C(=C2\C(=O)Nc3ccccc32)c2ccccc2)cc1
Given back: 225 to 227 °C

Asked: // melting point lookup, key: CN(C)CC(=O)Nc1ccc(N/C(=C2\C(=O)Nc3ccccc32)c2ccccc2)cc1
Given back: 234 to 236 °C

Asked: // melting point lookup, key: CCOC(=O)CN(c1cccc(N/C(=C2\C(=O)Nc3ccccc32)c2ccccc2)c1)S(C)(=O)=O
Given back: 188 to 190 °C

Asked: // melting point lookup, key: CC(C)(C)OC(=O)NCC(=O)NCc1ccc(N/C(=C2\C(=O)Nc3ccc([N+](=O)[O-])cc32)c2ccccc2)cc1
Given back: 219 to 221 °C (dec.)

Asked: // melting point lookup, key: COC(=O)CCNC(=O)c1ccc(/C(Nc2ccc(CN3CCCCC3)cc2)=C2/C(=O)Nc3ccc([N+](=O)[O-])cc32)cc1
Given back: 130 °C

Asked: // melting point lookup, key: CCOC(=O)CNS(=O)(=O)c1ccc(N/C(=C2\C(=O)Nc3ccccc32)c2ccccc2)cc1
Given back: 196 to 199 °C

Asked: // melting point lookup, key: CC(C)(C)OC(=O)N(Cc1ccccc1)Cc1ccc(N/C(=C2\C(=O)Nc3ccc([N+](=O)[O-])cc32)c2ccccc2)cc1
Given back: 202 to 203 °C (dec.)

----------
Catalogue of melting point readings, one per entry.

The examples below pair each entry with its known result.
- GIVEN_SMILES: "O=C1Nc2ccc([N+](=O)[O-])cc2/C1=C(/Nc1ccc(CNc2ncccn2)cc1)c1ccccc1"
  melting point: "284 to 286 °C"
- GIVEN_SMILES: "CCOC(=O)CN(C)S(=O)(=O)c1ccc(N/C(=C2\\C(=O)Nc3ccc([N+](=O)[O-])cc32)c2ccccc2)cc1"
  melting point: "206 to 207 °C"
- GIVEN_SMILES: "O=C1Nc2ccc([N+](=O)[O-])cc2/C1=C(/Nc1ccc(CCN2CCOCC2)cc1)c1ccccc1"
  melting point: "304 to 306 °C"
- GIVEN_SMILES: "O=C(O)CCNCc1ccc(N/C(=C2\\C(=O)Nc3ccc([N+](=O)[O-])cc32)c2ccccc2)cc1"
  melting point: "220 to 222 °C"
- GIVEN_SMILES: "CN(C)C(=O)CNS(=O)(=O)c1ccc(N/C(=C2\\C(=O)Nc3ccc([N+](=O)[O-])cc32)c2ccccc2)cc1"
  melting point: "281 to 283 °C"

Asked: // melting point lookup, key: CCOC(=O)COc1ccc(N/C(=C2\C(=O)Nc3ccccc32)c2ccccc2)cc1
Given back: 175 to 177 °C

----------
Catalogue of melting point readings, one per entry.

The examples below pair each entry with its known result.
- MOLECULE: "COC(=O)C(Cc1ccc(N/C(=C2\\C(=O)Nc3ccc([N+](=O)[O-])cc32)c2ccccc2)cc1)NC(=O)OC(C)(C)C (stereo not drawn) [Example 225]"
  melting point: "139 °C"
- MOLECULE: "CC(=O)N(C)c1ccc(N/C(=C2\\C(=O)Nc3ccc([N+](=O)[O-])cc32)c2ccccc2)cc1 [Example 98]"
  melting point: "305 to 307 °C"
- MOLECULE: "CCCS(=O)(=O)N(CCN(C)C)c1ccc(N/C(=C2\\C(=O)Nc3ccc([N+](=O)[O-])cc32)c2ccccc2)cc1 [Example 310]"
  melting point: "212 °C"
- MOLECULE: "Cc1cccc(N/C(=C2\\C(=O)Nc3ccccc32)c2ccccc2)c1 [Example 6]"
  melting point: "218 to 220 °C"
- MOLECULE: "CC1CCN(Cc2ccc(N/C(=C3\\C(=O)Nc4ccc([N+](=O)[O-])cc43)c3ccccc3)cc2)CC1 [Example 169]"
  melting point: "161 °C"
- MOLECULE: "CNCC(=O)NCc1ccc(N/C(=C2\\C(=O)Nc3ccc([N+](=O)[O-])cc32)c2ccccc2)cc1.Cl"
  melting point: "195 to 198 °C"

Asked: // melting point lookup, key: Cl.NCC(=O)NCc1ccc(N/C(=C2\C(=O)Nc3ccc([N+](=O)[O-])cc32)c2ccccc2)cc1
Given back: 225 to 228 °C

Asked: // melting point lookup, key: CN(C(=O)CCN)c1ccc(N/C(=C2\C(=O)Nc3ccccc32)c2ccccc2)cc1.Cl
Given back: 97 to 99 °C

Asked: // melting point lookup, key: CCNCCc1ccc(N/C(=C2\C(=O)Nc3ccc([N+](=O)[O-])cc32)c2ccccc2)cc1 [Example 255]
Given back: 235 to 237 °C

----------
Catalogue of melting point readings, one per entry.

- GIVEN_SMILES: "CC1CCN(CCc2ccc(N/C(=C3\\C(=O)Nc4ccc([N+](=O)[O-])cc43)c3ccccc3)cc2)CC1"
  melting point: "252 to 253 °C"

Asked: // melting point lookup, key: CN(C)CC(=O)NCc1ccc(N/C(=C2\C(=O)Nc3ccc([N+](=O)[O-])cc32)c2ccccc2)cc1
Given back: 272 to 273 °C

Asked: // melting point lookup, key: CN(C)CCN(C)C(=O)CN(c1ccc(N/C(=C2\C(=O)Nc3ccccc32)c2ccccc2)cc1)S(C)(=O)=O
Given back: 170 °C

Asked: // melting point lookup, key: CCCC(=O)N(CCN1CCOCC1)c1ccc(N/C(=C2\C(=O)Nc3ccccc32)c2ccccc2)cc1
Given back: 219 °C

Asked: // melting point lookup, key: CN(Cc1ccccc1)Cc1ccc(N/C(=C2\C(=O)Nc3ccc([N+](=O)[O-])cc32)c2ccc(Cn3ccnc3)cc2)cc1
Given back: 195 to 198 °C

Asked: // melting point lookup, key: CS(=O)(=O)N(CCN1CCOCC1)c1ccc(N/C(=C2\C(=O)Nc3ccc([N+](=O)[O-])cc32)c2ccccc2)cc1
Given back: 255 to 257 °C

Asked: // melting point lookup, key: O=C(CN1CCOCC1)NCc1ccc(N/C(=C2\C(=O)Nc3ccc([N+](=O)[O-])cc32)c2ccccc2)cc1
Given back: 290 to 295 °C

----------
METRIC_NAME: melting point (°C)
The reply should contain only the number, in °C.

- GIVEN_SMILES: "CCS(=O)(=O)N(CC(=O)NCCN(C)C)c1ccc(N/C(=C2\\C(=O)Nc3ccc([N+](=O)[O-])cc32)c2ccccc2)cc1"
  RESULT_UNITS: "°C"
  melting point: 155
- GIVEN_SMILES: "O=C1Nc2ccccc2/C1=C(/Nc1ccccc1)c1ccccc1"
  RESULT_UNITS: "°C"
  melting point: 325
- GIVEN_SMILES: "Cl.NCC(=O)NCc1cccc(N/C(=C2\\C(=O)Nc3ccc([N+](=O)[O-])cc32)c2ccccc2)c1"
  RESULT_UNITS: "°C"
  melting point: 309

Read the next record carefully.
Asked: // melting point lookup, key: CCOC(=O)C1CCN(Cc2ccc(N/C(=C3\C(=O)Nc4ccc([N+](=O)[O-])cc43)c3ccccc3)cc2)CC1
Given back: 194

----------
Catalogue of melting point readings, one per entry.

The examples below pair each entry with its known result.
- GIVEN_SMILES: "CN(C)Cc1ccc(N/C(=C2\\C(=O)Nc3ccc([N+](=O)[O-])cc32)c2cccc(Cl)c2)cc1"
  melting point: "274 °C"
- GIVEN_SMILES: "CC(=O)NCc1ccc(/C(Nc2cccc(N(CCN(C)C)S(C)(=O)=O)c2)=C2/C(=O)Nc3ccccc32)cc1"
  melting point: "180 °C"
- GIVEN_SMILES: "COc1ccc(N/C(=C2\\C(=O)Nc3ccccc32)c2ccccc2)cc1"
  melting point: "267 to 270 °C"
- GIVEN_SMILES: "COCC(=O)N(CCN(C)C)c1ccc(N/C(=C2\\C(=O)Nc3ccccc32)c2ccccc2)cc1"
  melting point: "246 to 249 °C"

Asked: // melting point lookup, key: CCOC(=O)Cc1cccc(N/C(=C2\C(=O)Nc3ccccc32)c2ccccc2)c1
Given back: 178 to 181 °C

Asked: // melting point lookup, key: CN(C)CCN(C=O)c1ccc(N/C(=C2\C(=O)Nc3ccc([N+](=O)[O-])cc32)c2ccccc2)cc1
Given back: 215 to 218 °C

Asked: // melting point lookup, key: CN(C(=O)CN1CCCCC1)c1ccc(N/C(=C2\C(=O)Nc3ccccc32)c2ccccc2)cc1
Given back: 230 to 235 °C (dec.)

Asked: // melting point lookup, key: CCN(CC)Cc1ccc(N/C(=C2\C(=O)Nc3ccc([N+](=O)[O-])cc32)c2ccccc2)cc1
Given back: 173 to 174 °C

Asked: // melting point lookup, key: CN(C)CCN(C)C(=O)c1ccc(N/C(=C2\C(=O)Nc3ccccc32)c2ccccc2)cc1
Given back: 181 to 183 °C

Asked: // melting point lookup, key: O=C1Nc2ccc([N+](=O)[O-])cc2/C1=C(/Nc1ccccc1)c1ccc(CN2C(=O)c3ccccc3C2=O)cc1
Given back: 334 to 336 °C (dec.)

Asked: // melting point lookup, key: CN(C)C(=O)CN(c1ccc(N/C(=C2\C(=O)Nc3ccccc32)c2ccccc2)cc1)S(C)(=O)=O
Given back: 260 to 262 °C

Asked: // melting point lookup, key: CCOC(=O)CCCN(c1ccc(N/C(=C2\C(=O)Nc3ccccc32)c2ccccc2)cc1)S(C)(=O)=O
Given back: 265 to 268 °C
